- test-target: T1, hVISTA-ECD 6-His tag (human, UniProt Q9H7M9 33-193)
- T1 construct: also called monovalent hVISTA-ECD; human VISTA
- T1 sequence (Q9H7M9 other isoform, or with tags, fused parts or gaps limits assumed): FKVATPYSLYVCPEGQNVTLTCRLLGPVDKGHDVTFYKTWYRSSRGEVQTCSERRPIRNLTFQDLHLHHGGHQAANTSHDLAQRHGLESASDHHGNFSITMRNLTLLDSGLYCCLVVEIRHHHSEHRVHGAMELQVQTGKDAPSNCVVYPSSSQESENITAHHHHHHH
- test-details: SPR; KD at pH 6.45 over KD at pH 6.0 (head prints 7.4)
measurement-kind: 7.4 KD/ 6.0 KD
Hey, just send me the number, nothing else.

{"binder": "P1-061520 (41F11 VK_A64G) (antibody, V domains shown, also called P1-061520-21; VISTA.4.A64G) VH: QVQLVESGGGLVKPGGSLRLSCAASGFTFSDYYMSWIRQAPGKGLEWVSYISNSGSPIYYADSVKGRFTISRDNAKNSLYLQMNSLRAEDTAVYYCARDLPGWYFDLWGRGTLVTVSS VL: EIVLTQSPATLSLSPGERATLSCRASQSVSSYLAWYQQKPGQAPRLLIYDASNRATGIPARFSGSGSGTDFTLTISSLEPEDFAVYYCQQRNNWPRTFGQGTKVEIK", "7.4 KD/ 6.0 KD": 0.3}

// returns reported 7.4 KD/ 6.0 KD for input P1-070976 (41F11_VH_T28P_Y50W_S55E_D95H_L96E_P97E_Y100E; Vk_A64G) (antibody, V domains shown, They look like Kabat positions on the mature VH, but no numbering scheme is stated; also called P1-070976-11) VH: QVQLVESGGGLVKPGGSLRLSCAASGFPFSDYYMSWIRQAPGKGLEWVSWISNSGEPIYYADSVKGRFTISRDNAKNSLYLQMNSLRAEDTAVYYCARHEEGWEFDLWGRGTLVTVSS VL: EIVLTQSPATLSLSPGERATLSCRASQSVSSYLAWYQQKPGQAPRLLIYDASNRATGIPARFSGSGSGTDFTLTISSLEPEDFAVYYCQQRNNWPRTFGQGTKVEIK 4.4

7.4 KD/ 6.0 KD lookup needed for P1-068744 (antibody, human IgG1, kappa, V domains shown, also called P1-068744-7) VH: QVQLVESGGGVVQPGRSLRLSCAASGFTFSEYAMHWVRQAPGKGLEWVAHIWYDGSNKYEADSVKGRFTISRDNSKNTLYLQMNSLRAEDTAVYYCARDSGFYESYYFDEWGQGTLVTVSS VL: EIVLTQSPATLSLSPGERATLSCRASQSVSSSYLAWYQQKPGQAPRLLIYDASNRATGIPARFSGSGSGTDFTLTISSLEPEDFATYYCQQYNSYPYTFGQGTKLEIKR , thanks. 12.6

For the binder P1-068748 (antibody, human IgG1, kappa, V domains shown, also called P1-068748-6) VH: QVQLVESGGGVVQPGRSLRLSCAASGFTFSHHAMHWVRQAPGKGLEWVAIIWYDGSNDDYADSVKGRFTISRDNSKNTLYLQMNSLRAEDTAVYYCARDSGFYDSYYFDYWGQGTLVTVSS VL: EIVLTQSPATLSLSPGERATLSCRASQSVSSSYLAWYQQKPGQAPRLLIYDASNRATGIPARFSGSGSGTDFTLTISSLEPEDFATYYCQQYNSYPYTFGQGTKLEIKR , what 7.4 KD/ 6.0 KD is on record? 4.1
